# study.system: Protein (capsid assembly) (Hepatitis B virus genotype D subtype ayw)
# Sequence (P03146 whole entry): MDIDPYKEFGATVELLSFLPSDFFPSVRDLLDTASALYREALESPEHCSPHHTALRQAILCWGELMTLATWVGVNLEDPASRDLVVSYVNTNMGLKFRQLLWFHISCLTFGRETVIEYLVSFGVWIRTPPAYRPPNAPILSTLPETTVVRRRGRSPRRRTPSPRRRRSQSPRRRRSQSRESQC
# measurement.protocol: Protein inhibition (capsid assembly inhibition), Table 1
# Type: biochemical
# run.conditions: @30 μM; read-out: Protein % inhibition rate (@30 μM)
Recorded measurements of inhibition at 30 µM, one per entry
observable: inhibition at 30 µM (%)

compound	study.system	observable	unit.string	numeric.readout
O=C(Nc1cccc(Cl)c1)N(Cc1nnc2n1CCCC2)c1ccc2c(c1)OCO2 [Example 41]	Protein (capsid assembly) (Hepatitis B virus genotype D subtype ayw)	inhibition at 30 µM	%	59
COc1ccc(N(Cc2nnc3n2CCCCC3)C(=O)Nc2ccc(F)c(Cl)c2)cn1 [Example 44]	Protein (capsid assembly) (Hepatitis B virus genotype D subtype ayw)	inhibition at 30 µM	%	82
CN(C)c1ccc(N(Cc2nnc3n2CCCCC3)C(=O)Nc2ccc(F)c(Cl)c2)cc1 [Example 34]	Protein (capsid assembly) (Hepatitis B virus genotype D subtype ayw)	inhibition at 30 µM	%	-7
CC(C)(C)OC(=O)n1ccc2cc(N(Cc3nnc4n3CCCCC4)C(=O)Nc3ccc(F)c(Cl)c3)ccc21 [Example 17]	Protein (capsid assembly) (Hepatitis B virus genotype D subtype ayw)	inhibition at 30 µM	%	92.6
N#Cc1cccc(NC(=O)N(Cc2nnc3n2CCCCC3)c2ccc3c(c2)OCO3)c1 [Example 8]	Protein (capsid assembly) (Hepatitis B virus genotype D subtype ayw)	inhibition at 30 µM	%	83
COC(=O)Cc1nnc(CN(C(=O)Nc2ccc(F)c(Cl)c2)c2ccc3c(c2)OCO3)[nH]1 [Example 45]	Protein (capsid assembly) (Hepatitis B virus genotype D subtype ayw)	inhibition at 30 µM	%	6
O=C(Nc1ccc(F)c(Cl)c1)N(Cc1nnc2n1CCCCC2)c1ccc(F)c(F)c1 [Example 22]	Protein (capsid assembly) (Hepatitis B virus genotype D subtype ayw)	inhibition at 30 µM	%	43
COc1ccc(N(Cc2nnc(C)n2C2CCCC2)C(=O)Nc2ccc(F)c(Cl)c2)cc1 [Example 32]	Protein (capsid assembly) (Hepatitis B virus genotype D subtype ayw)	inhibition at 30 µM	%	23
O=C(Nc1ccc(F)c(Cl)c1)N(Cc1nnc2n1CCCCCC2)c1ccc2c(c1)OCO2 [Example 30]	Protein (capsid assembly) (Hepatitis B virus genotype D subtype ayw)	inhibition at 30 µM	%	32
CC(C)Oc1ccc(N(Cc2nnc3n2CCCCC3)C(=O)Nc2ccc(F)c(Cl)c2)cc1 [Example 12]	Protein (capsid assembly) (Hepatitis B virus genotype D subtype ayw)	inhibition at 30 µM	%	95
Cn1ccc(N(Cc2nnc3n2CCCCC3)C(=O)Nc2ccc(F)c(Cl)c2)n1 [Example 35]	Protein (capsid assembly) (Hepatitis B virus genotype D subtype ayw)	inhibition at 30 µM	%	63.1
N#Cc1cccc(N(Cc2nnc3n2CCCCC3)C(=O)Nc2ccc(F)c(Cl)c2)c1 [Example 19]	Protein (capsid assembly) (Hepatitis B virus genotype D subtype ayw)	inhibition at 30 µM	%	94
O=C(Nc1ccc(F)c(Cl)c1)N(Cc1nnc2n1CCCCC2)c1ccc2c(c1)OCO2 [Example 2]	Protein (capsid assembly) (Hepatitis B virus genotype D subtype ayw)	inhibition at 30 µM	%	81
O=C(Nc1ccc(F)c(Cl)c1)N(Cc1nnc2n1CCCCC2)C1CCCC1 [Example 6]	Protein (capsid assembly) (Hepatitis B virus genotype D subtype ayw)	inhibition at 30 µM	%	77
COc1ccc(N(Cc2nnc3n2CCCCC3)C(=O)Nc2ccc(F)c(Cl)c2)cc1 [Example 3]	Protein (capsid assembly) (Hepatitis B virus genotype D subtype ayw)	inhibition at 30 µM	%	89
CC(c1nnc2n1CCOCC2)N(C(=O)Nc1ccc(F)c(Cl)c1)c1ccc2c(c1)OCO2 (centres unmarked) [Example 33]	Protein (capsid assembly) (Hepatitis B virus genotype D subtype ayw)	inhibition at 30 µM	%	26
COc1ccc(N(Cc2nnc(C)n2C)C(=O)Nc2ccc(F)c(Cl)c2)cc1 [Example 15]	Protein (capsid assembly) (Hepatitis B virus genotype D subtype ayw)	inhibition at 30 µM	%	55.3
